The measured values listed here are drawn from PubChem BioAssay (NCATS).

# Test System: Peptidyl-prolyl cis-trans isomerase NIMA-interacting 1 (Homo sapiens) (UniProt Q13526)
# Sequence (Q13526 whole entry, looked up): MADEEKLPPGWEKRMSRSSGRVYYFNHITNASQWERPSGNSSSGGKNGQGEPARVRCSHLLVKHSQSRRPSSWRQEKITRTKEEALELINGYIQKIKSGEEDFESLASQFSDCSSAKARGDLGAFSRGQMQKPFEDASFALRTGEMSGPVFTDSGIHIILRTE
# Assay Text: qHTS Validation Assay to Find Inhibitors of Pin1 (AID 504536)
# Condition Label: Pin1 fluorescence polarization peptide binding assay; series mostly up to 57.5 µM
Results filed as inconclusive are left out. The source made the active and inactive calls. Calls follow the shape of the dose curve; as a rule, active = well fitted inhibition curve with a large enough effect in the polarisation, with a control signal flat (not every such curve was filed as active); inconclusive = small, poorly fitted or top-dose-only effect, or effect the other way; inactive = flat fitted curve, though single readings scatter; the % refers to the polarisation.
Write down one outcome, taken from active, inactive

Entry O=C(c1ccc(OCCCc2cnc[nH]2)cc1)C1CC1 : call = ?
inactive

Entry O=[N+]([O-])c1ccc2c(c1)S(=O)(=O)C=C2 : call = ?
inactive

Entry CCCn1c(=O)c2[nH]c(-c3ccc(OCC(=O)NCCN)cc3)nc2n(CCC)c1=O : call = ?
inactive

Entry C[N+](C)(CCCCCC[N+](C)(C)CCCN1C(=O)c2cccc3cccc(c23)C1=O)CCCN1C(=O)c2cccc3cccc(c23)C1=O : call = ?
inactive

Entry CCN1/C(=C/C(C)=O)Sc2ccc(OC)cc21 : call = ?
inactive

Entry COc1cc(C(O)CO)ccc1OS(=O)(=O)O (stereo not drawn) : call = ?
inactive

Entry CC12C(=O)OC(=O)C1(C)C1CCC2O1 (stereo not drawn) : call = ?
inactive

Entry CO/S(=N\S(=O)(=O)c1ccc(Cl)cc1)c1ccc([N+](=O)[O-])cc1 (stereo not drawn) : call = ?
inactive

Entry O=C(/C=C/c1ccc(O)c(O)c1)OCCc1ccccc1 : call = ?
inactive

Entry NCCCCCCCCCCN : call = ?
inactive

Entry COc1cc2nc(N3CCN(C(=O)OCc4ccccc4)C(C(=O)NC(C)(C)C)C3)nc(N)c2cc1OC (stereo not drawn) : call = ?
inactive

Entry CC1(C)CCC=[N+]1[O-] : call = ?
inactive

Entry CC(C)Cc1ccc([C@H](C)C(=O)O)cc1 : call = ?
inactive

Entry C[N+]1(C)CCC(OC(=O)C(c2ccccc2)c2ccccc2)CC1 : call = ?
inactive

Entry NC(CCCP(=O)(O)O)C(=O)O (stereo not drawn) : call = ?
inactive

Entry CSc1ccccc1N1CCN(CCCCCC(=O)NC2CCCc3ccccc32)CC1 (stereo not drawn) : call = ?
inactive

Entry C[N+]1(C)C2CC(OC(=O)[C@H](CO)c3ccccc3)CC1C1OC12 (stereo partly drawn) : call = ?
inactive

Entry OCC1O[C@H]([S-])[C@H](O)[C@@H](O)[C@@H]1O.[Au+] (stereo partly drawn) : call = ?
active

Entry COc1ccccc1CNCCCCCCNCCCCCCCCNCCCCCCNCc1ccccc1OC : call = ?
inactive

Entry CCCCC#Cc1nc(NC)c2ncn([C@@H]3O[C@H](CO)[C@@H](O)[C@H]3O)c2n1 : call = ?
inactive

Entry CCOC(=O)N1CCN(/[N+]([O-])=N/Oc2ccc([N+](=O)[O-])cc2[N+](=O)[O-])CC1 : call = ?
inactive

Entry OC[C@H]1O[C@@H](n2cnc3c(NC4CCCC4)ncnc32)[C@H](O)[C@@H]1O : call = ?
inactive

Entry N=c1ccn2c(n1)O[C@H]1[C@H](O)[C@@H](CO)O[C@H]12 : call = ?
inactive
